// reported viability at 28.5 h, 10 µM per item
# experiment: in vitro
# condition: human, hela cells, % viability
measured.quantity: viability at 28.5 h, 10 µM (%)

compound | measurement.unit | val
Cc1ccc(C(=O)O)cc1NC(=O)c1cccc(C(=O)Nc2cc(C(=O)O)ccc2C)c1 | % | 97.5
CCc1cc2cc3c(cc2nc1SCC(=O)Nc1cc(OC)ccc1OC)OCO3 | % | 91.8
CN1CCC(Oc2nc3ccccc3nc2C(F)(F)F)CC1 | % | 90.1
CC(=O)Nc1ncc(Cl)s1 | % | 108
Cc1nccn1-c1ccc(NC(=O)C2CC(=O)N(C3CCCC3)C2)cc1F (stereo not shown) | % | 83.1
CCN(CC)C1=NC(=S)N(C)C(c2ccc(OC)cc2)S1 (stereo not shown) | % | 99.3
COCCn1nnnc1C(c1cc2cc(C)cc(C)c2[nH]c1=O)N1CCOCC1 (stereo not shown) | % | 95.3
CCc1nc(C(C)NC(=O)COc2nn(C)c3nc(C)cc(C)c23)cs1 (stereo not shown) | % | 93.3
CCCNC(=O)NS(=O)(=O)c1ccc(C)cc1 | % | 100
O=C(CCCn1ccnc1)N1CCc2[nH]c3ccccc3c2C1 | % | 101

* * *

# Test system: HeLa
# condition: bulk resorufin, single well, 28.5 h, 10 µM, Bulk resorufin fluorescence

compound | % viability, %
c1ccc(-c2csc3ncnc(NCc4ccco4)c23)cc1 | 84.6
CSc1ccc(CN2CCN(Cc3ccc(Br)cc3)CC2)cc1 | 96.4
O=C1CCC(=O)N1CCOc1nccnc1OC1CCN(Cc2cccnc2)CC1 | 89.7
CC1CCc2c(sc3ncnc(SCC(=O)N4CCOCC4)c23)C1 (stereo not drawn) | 111
C[C@H]1CN2C[C@H](O)CC2CN1Cc1cccc(Oc2ccccc2)c1 (stereo partly drawn) | 96.2
C[C@@H](Cn1nnc2ccccc21)NC(=O)C1CC1 | 81.5
N#CCCCN1CCN(c2nccnc2OC2CCCCC2)CC1 [CBK082841T] | 107
COC(=O)c1ccccc1OC[C@@H]1CN(C(=O)C(C)(C)N)C[C@H]1c1cc2ccccc2o1 [CBK022525T] | 92.2
CS(=O)(=O)Nc1cc2ccccc2c(-c2ccc(S(C)(=O)=O)cc2)n1 | 107

* * *

# experiment: in vitro
# condition: human, hela cells, % viability
measured.quantity: viability at 28.5 h, 10 µM

molecule | val
NS(=O)(=O)c1ccc(N2N=C(c3ccccc3)CC2c2ccccc2)cc1 (centres unmarked) [CBK261511] | 95.9%
O=P(O)(CCc1ccccc1)CN1CCCCC1 [CBK262318] | 78.6%
CC(C)(c1ccc(Oc2cccc(N)c2)cc1)c1ccc(Oc2cccc(N)c2)cc1 [CBK260958] | 109%
Cc1ccc(S(=O)(=O)N2CCN(Cc3cc(Br)ccc3O)CC2)cc1 [CBK264242] | 98.5%
O=C(NCCOc1ccccc1)NC(=O)C1CCNCC1 [CBK088187T] | 119%
Cc1cc(C)c2[nH]c(CC(=O)N(C)CCN(C)C)nc2c1 [CBK282727] | 74.3%
CCNC(=O)N1CC2(CCN(CCCC#N)CC2)c2ccccc21 [CBK136970] | 111%
Cc1ccc(S(=O)(=O)N(CC(=O)Nc2ccccc2-c2ccccc2)c2cccc(C)c2)cc1 [CBK265988] | 98%
O=C(Cn1cc(C(=O)NC2CCCC2)ccc1=O)NCC1(c2ccccc2)CCCC1 [CBK286248] | 94.7%
Cc1ccc(OCc2nc(C)c(C(=O)N3CCCC(C)C3)s2)cc1 (centres unmarked) [CBK305356] | 94.3%
COc1cnc(-c2cc(Cl)cc(Cl)c2)c(NC(C)=O)n1 [CBK145333] | 105%
CC(C)(C)c1ccc(-c2nc3ncccc3cc2O)cc1 [CBK073703] | 74.5%
Cc1nn(C)c(N2CCNCC2)c1NC(=O)C1CCC1 [CBK045923T] | 91.8%
CCCCC1C(=O)N(C)CCN1C(=O)NCc1cn2ccc(C)cc2n1 (centres unmarked) [CBK306648] | 91.8%
COc1ccc(Cc2cccc(C3CCN(C(=O)Cc4ccc(F)cc4)CC3)n2)cc1 [CBK286225] | 95.6%
CCOC(=O)c1ccccc1NC(=O)CCC(=O)O [CBK261631] | 93.5%
COC(=O)c1c(NC(=S)Nn2cnnc2)sc2c1CCC(C)C2 (centres unmarked) [CBK266942] | 91.6%
CC(C)CC1(C(CCN2C(=O)c3ccccc3C2=O)C(=O)NO)CCN(Cc2cccc(F)c2)C1=O (centres unmarked) [CBK013032] | 83.8%
Cn1cc([C@H]2C[C@@H](O)[C@@H](CO)O2)c(=O)[nH]c1=O [CBK201171] | 88.9%
NCCOc1ncccc1OCc1ccccc1 [CBK036305] | 90.7%
Fc1ccc2[nH]c3c(c2c1)CCOC31CCN(C/C=C\c2ccccc2)CC1 [CBK040141] | 70.1%
Cn1cc(-c2nc(C(=O)N3CCN(c4ncccn4)CC3)cs2)cn1 [CBK305626] | 91%
CCOC(=O)c1c(NC(=O)CSc2n[nH]c(N)n2)sc(C)c1C [CBK266412] | 94.4%
O=C1c2ccc(Oc3ccc4c(c3)C(=O)N(c3ccncc3)C4=O)cc2C(=O)N1c1ccncc1 [CBK261399] | 96.5%
CCN(CC)S(=O)(=O)c1cccc(-n2sc3ccccc3c2=O)c1 [CBK116501] | 96.2%
Cc1ccc([N+](=O)[O-])c(OCCN2CCN(Cc3ccccc3)CC2)c1 [CBK268568G] | 99.2%
Cc1nc2ccc(Cl)cn2c1CN1CCN(C2CCCC2)C(=O)C1 [CBK281452] | 84%
O=[N+]([O-])c1ccc(F)cc1NS(=O)(=O)c1ccccc1 [CBK000674] | 93.1%
O=C(O)c1cc(S(=O)(=O)Nc2ccc3nc(N4CCCC4)sc3c2)ccc1Br [CBK296710] | 91.5%
CC(=O)c1sc(NC(=O)c2ccc(Cl)cc2)nc1C [CBK087686] | 86.7%
O=C(Cc1c[nH]cn1)N1CCN(C(=O)c2ccco2)CC1 [CBK144448] | 91.9%
Cc1nc(CC(=O)N2CCCC(c3cccc(Cc4ccc(Cl)cc4)n3)C2)cs1 (centres unmarked) [CBK286505] | 94.3%
O=C(NCc1nc2ccccc2[nH]1)c1cnc(-c2ccc(Cl)cc2)c(-c2ccco2)c1 [CBK037555] | 106%
C=CCNc1nccnc1-c1ccncc1 [CBK036845] | 90.7%
O=C(c1cc(-c2ccccc2)n[nH]c1=O)N1CCc2ccccc2C1 [CBK291216] | 91.2%
Cc1cc2nc(C(=O)NCCCn3ccnc3C(C)C)cc(C)n2n1 [CBK307022] | 90.5%
Cc1nn(-c2ccccc2)c(Cl)c1CN1C(=O)NC2(CCCC2)C1=O [CBK305070] | 91.9%
CC(NC(=O)CC1CCN(Cc2cccc(C(F)(F)F)c2)CC1)c1nc2ccccc2[nH]1 (centres unmarked) [CBK285952] | 104%
